Settings: in 2-butanone, 323.15 K

SMILES_STRING	solubility (mole fraction)
CC1=NN(c2ccccc2)C(=O)C1	0.121

----------
Conditions: in MIBK, 283.15 K

SMILES_STRING	solubility (mole fraction)
CC1=NN(c2ccccc2)C(=O)C1	0.0107

----------
Conditions: in 1,2-dichloroethane, 298.15 K

SMILES_STRING	solubility (mole fraction)
CC1=NN(c2ccccc2)C(=O)C1	0.0417

----------
Conditions: in n-butyl acetate, 313.15 K

SMILES_STRING	solubility (mole fraction)
CC1=NN(c2ccccc2)C(=O)C1	0.0305

----------
Settings: in dimethyl carbonate, 318.15 K

SMILES_STRING	solubility (mole fraction)
CC1=NN(c2ccccc2)C(=O)C1	0.0458
